Experiment: Half-life in male Sprague-Dawley rat at 2 mg/kg, iv measured after 48 hrs by LC-MS/MS analysis
Type: ADME, organism-based
Settings: in vivo
measured.attribute: half-life (h)

Cc1cc2cccnc2cc1Nc1ncc2c(n1)N(C1CCOCC1)Cc1nncn1-2 ... 1

====

Experiment: Half-life in male Sprague-Dawley rat at 10 mg/kg, po measured after 48 hrs by LC-MS/MS analysis
Format: ADME, organism-based
Details: in vivo
measured.attribute: half-life (h)

Cc1cc2cccnc2cc1Nc1ncc2c(n1)N(C1CCOCC1)Cc1nncn1-2 ... 2

====

Experiment: AUC (0 to infinity) in male Sprague-Dawley rat at 10 mg/kg, po measured after 48 hrs by LC-MS/MS analysis
Format: ADME, organism-based
Settings: in vivo
measured.attribute: AUC(0-inf) (ng·h/mL)

Cc1cc2cccnc2cc1Nc1ncc2c(n1)N(C1CCOCC1)Cc1nncn1-2 ... 962
